molecular target: membrane-bound tissue factor (TF) on cells (human, UniProt P13726 33-295); assay: cell-based or functional assay
readout-type: EC50 of cell killing, A431 cells, anti-kappa-ETA' assay (µg/mL)
Field: numeric (µg/mL). Do not append units.

Query: Entry Anti-TF HuMab 111 (antibody, IgG1, V domains shown, full length, fully human monoclonal IgG1,kappa) VH: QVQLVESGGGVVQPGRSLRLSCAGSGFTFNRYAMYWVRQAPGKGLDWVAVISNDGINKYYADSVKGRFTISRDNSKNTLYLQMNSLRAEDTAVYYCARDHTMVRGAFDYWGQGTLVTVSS VL: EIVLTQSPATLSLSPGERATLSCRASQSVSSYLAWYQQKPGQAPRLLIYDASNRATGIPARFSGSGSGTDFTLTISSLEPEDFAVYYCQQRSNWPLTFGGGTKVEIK : reported EC50 of cell killing, A431 cells, anti-kappa-ETA' assay = ?
Reply: 0.034

// data source = patent US20240294661A1
